# System: Staphylococcus aureus
# protocol: Antibacterial activity against Staphylococcus aureus UAMS-1 after 18 hrs by Mueller-Hinton broth analysis
# Assay type: functional
# test_conditions: UAMS-1, 18 h
metric: MIC (µg/mL)
Give the value in µg/mL but do not write µg/mL after it.

Worked cases, MIC given:
>>> print(df.to_string())
                    structure_smiles_string          target_system  metric  quantitative_readout
0  CC(C)c1ccc(OCC(=O)NNC(=S)NC(=O)c2ccccc2)cc1  Staphylococcus aureus     MIC                    64
1  Cc1cc(/C=C(/C#N)C(=O)Nc2cccc(Br)c2)c(C)n1-c1ccc(C(=O)O)cc1  Staphylococcus aureus     MIC                    32
2  CC(C)c1ccc(OCC(=O)NNC(=S)NC(=O)c2coc3ccccc23)cc1  Staphylococcus aureus     MIC                   128
3  CC(C)c1ccc(OCC(=O)NNC(=S)NC(=O)c2ccc(-c3ccccc3)o2)cc1  Staphylococcus aureus     MIC                    64
4  CC(C)c1ccc(OCC(=O)NNC(=S)NC(=O)c2cccs2)cc1  Staphylococcus aureus     MIC                    64
5  CC(C)c1ccc(OCC(=O)NNC(=S)NC(=O)c2ccco2)cc1  Staphylococcus aureus     MIC                    16

Request: Bench note: what MIC did `CC(C)c1ccc(OCC(=O)NNC(=S)NC(=O)c2ccc[nH]2)cc1` show?
Response: 16

Request: Form field: reported MIC of `CC(C)c1ccc(OCC(=O)NNC(=S)NC(=O)c2cc3ccccc3o2)cc1`
Response: 32

src = ChEMBL document CHEMBL4184296
